experiment-notes: Antioxidative capacity: inhibition of the peroxidation of lipids
Format: biochemical
setup-conditions: pure polyphenols isolated from wood material
Please go through the items and note down their EC50 which inhibits 50% of the peroxidation of the lipids.
One number for each entry, in µg/mL.

Example compounds with recorded EC50 which inhibits 50% of the peroxidation of the lipids:
> print(dat)
                                   compound  units.of.measure  value
1  Oc1ccc([C@H]2Oc3c(ccc(O)c3O)[C@@H](O)[C@H]2O)cc1O             µg/mL  0.036
2     O=C1C[C@@H](c2ccccc2)Oc2cc(O)cc(O)c21             µg/mL  1.135
3               Oc1cc(O)cc(/C=C/c2ccccc2)c1             µg/mL   0.05

Please state EC50 which inhibits 50% of the peroxidation of the lipids for every compound in the list that follows.
1. O=C1c2c(O)cc(O)cc2O[C@H](c2ccc(O)cc2)[C@H]1O [Dihydrokaempferol]
2. COc1cc([C@H]2c3cc(O)c(OC)cc3C[C@@H](CO)[C@@H]2CO)ccc1O
3. Oc1ccc([C@H]2Oc3c(ccc(O)c3O)[C@@H](O)[C@H]2O)cc1

Completion:
1. 0.488
2. 0.017
3. 0.05
